Hi there, I'd appreciate the recorded apparent KD of MS2 coat protein for every entry that follows.
tested on: MS2 coat protein; test: apparent KD of MS2 coat protein; designed switch direction (-1 OFF switch, 1 ON switch): -1; higher = weaker reporter binding; settings: Eterna round: R95; input ligand: none
Numbers only, in nM.

- construct-sequence: "UUUAACAAGCCAGAUCCUCACAUGAGGAUCACCCAUGUGCUCGUCUGAUUUUGUACUAUCACGUUUGUGAUAGUGUU [Level Boss var2-07] (puzzle: Sensor v3, turn-off variant 1)"
  tested-system: "MS2 coat protein"
  apparent KD of MS2 coat protein (nM): 124
- construct-sequence: "UUAACGUGGGCGUCCCACAGCAAGCUUUUUGCUCGUUUAACAUGAGGAUCACCCAUGUCGCUGCGGGAUCCCUAUGA [Abeisat] (puzzle: Sensor v3, turn-off variant 2)"
  tested-system: "MS2 coat protein"
  apparent KD of MS2 coat protein (nM): 11.6
- construct-sequence: "GCCAGAGCAGGAUAUCUAAUAUCUCACAUGAGGAUCACCCAUGUCCAGCGAAAGCUGGAGGGAGAAGGGCUCUGGC [Fiskers Ex 5 - 10] (puzzle: Exclusion 5)"
  tested-system: "MS2 coat protein"
  apparent KD of MS2 coat protein (nM): 61.8
- construct-sequence: "GAUUAUGCGAGCUUUAGGGACAUGAGGAUCACCCAUGUUCGUCUUAUUGAUCUGGAUGCGCUAACAUACCUAAAUCU [JMF 45] (puzzle: Sensor v3, turn-off variant 1)"
  tested-system: "MS2 coat protein"
  apparent KD of MS2 coat protein (nM): 62.9
- construct-sequence: "AAGUAUAGAGGAUAUAGUGAGUACUACAUGAGGAUCACCCAUGUUCUUCAAAGCGUAUUUCUAGAAGGCUGUUAAA [EX-5 Malc#18] (puzzle: Exclusion 5)"
  tested-system: "MS2 coat protein"
  apparent KD of MS2 coat protein (nM): 53.1

// each sequence listed below needs its apparent KD of MS2 coat protein
1. GAUUGACAUGAGGAUCACCCAUGUGAGGAUAUCGGCUGGACCGUGUUGGCUUGGGUUUCGAGAAGGCGCAUAGG [Exclusion 1 V46] (puzzle: Exclusion 1)
2. AAGAAACAUGAGGAUCACCCAUGUGAGGAUAUGACGAAGAAAAGAAAAGAAAGAAGACUCAGAAGGCACAAAGG [salish99-ex1_r3_076] (puzzle: Exclusion 1)
3. UAAUAGCAAGCAAGAUCCCACAUGAGGAUCACCCAUGUGCUCGUCUUAUAAGGUACUGUGACGAAAGUCACGGUACC [Sensor 3, v1 - 98] (puzzle: Sensor v3, turn-off variant 1)
4. AGUUGGCGAGGAUAUACAUGAGGAUCACCCAUGUGAGAGAAUAAAGUGAGAAAGAAAAGUAGAAGGCGCUGACG [Mat - Exclusion 3 - Mod of Salish D50] (puzzle: Exclusion 3)
5. GGUAGUAUGAGUAGUCCUCAUUGAAGAGAUUAGUAAGAAACAUGAGGAUCACCCAUGUUAGAACAAGCUUUUGCUCA [JR_Sv3TOV2_Sub004] (puzzle: Sensor v3, turn-off variant 2)

Reply:
[74.6, 43.4, 47.5, 41.4, 142]
